assay: self-splicing fitness, log relative to wild type (ln ratio); higher = more splicing; Tetrahymena group I intron in knt gene, E. coli kanamycin selection, DiMSum; sequences stand for … in CUCUCU…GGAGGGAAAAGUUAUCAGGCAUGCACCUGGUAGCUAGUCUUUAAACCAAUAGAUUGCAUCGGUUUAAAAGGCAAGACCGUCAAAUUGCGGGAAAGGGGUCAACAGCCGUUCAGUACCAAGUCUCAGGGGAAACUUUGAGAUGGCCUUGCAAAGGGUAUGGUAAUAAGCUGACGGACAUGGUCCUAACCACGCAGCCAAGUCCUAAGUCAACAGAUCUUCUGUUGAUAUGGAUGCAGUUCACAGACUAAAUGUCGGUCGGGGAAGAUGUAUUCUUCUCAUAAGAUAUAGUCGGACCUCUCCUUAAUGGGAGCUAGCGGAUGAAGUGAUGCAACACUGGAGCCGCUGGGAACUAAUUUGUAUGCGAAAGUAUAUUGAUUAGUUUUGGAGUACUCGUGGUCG; settings: 30 °C;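 also: selection with 25 µg/mL kanamycin versus none on LB agar overnight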
Respond with criterion met for self-splicing fitness (ln) values of -3 and above, criterion not met for values below.

Some solved entries appear below for comparison.
[[record]]
chain = "AUUCAGCAAUAUUACGCUGU"
label_class = "criterion met"

[[record]]
chain = "CGAGAGCAAUAUUACGGGGU"
label_class = "criterion met"

[[record]]
chain = "UCCGAGCAAUAUUACGCAGC"
label_class = "criterion not met"

[[record]]
chain = "GCAAAGCAAUAUUACGGCUA"
label_class = "criterion met"


Please check the record CAGUAGCAAUAUUACGACUA and state if its self-splicing fitness (ln) is at or above -3.
criterion met

What do you get for UCGCAGCAAUAUUACGGAUC ?
criterion not met

What do you get for UGUAAGCAAUAUUACGCGGA ?
criterion met

What do you get for ACUAAGCAAUAUUACGAUUU ?
criterion met

What do you get for AUGGAGCAAUAUUACGCAAA ?
criterion met
